Consider the following molecules; for each one, report its IC50.
- Tested on: IL-1β
- Procedure Summary: PBMC assay: inhibition of IL-1β release after LPS stimulation (MSD)
- Format: cell-based
- Measurement Conditions: Homo sapiens, PBMC, 6 h, human PBMCs, 100 ng/ml LPS for 6 hrs, MSD, 96 well plates; read-out: IL1β IC50
Numeric only. Scale: µM

Data point: `CO[C@]1(C)C[C@H](NC(=O)Cn2nc(C(C)C)c3cc(C(F)(F)F)ccc3c2=O)C1` ; IC50 = 0.216

Data point: `CC(C)c1nn(CC(=O)Nc2nc(Cl)c3ncn(C)c3n2)c(=O)c2ccc(C(F)(F)F)cc12` ; IC50 = 1.11

Data point: CCN1CC[C@H](NC(=O)Cn2nc(C(C)C)c3cc(C(F)(F)F)ccc3c2=O)[C@H](O)C1 (single isomer, unassigned) ; IC50 = 5.94

Data point: `CC(C)c1nn(CC(=O)Nc2cc(F)[nH]c(=O)c2)c(=O)c2ccc(C(F)(F)F)cc12` ; IC50 = 0.17

Data point: CCN1CC[C@@H](NC(=O)Cn2nc(C(C)C)c3cc(C(F)(F)F)ccc3c2=O)[C@H](O)C1 (single isomer, unassigned) ; IC50 = 4.61

Data point: `CC(C)c1nn(CC(=O)Nc2ccn3ccnc3n2)c(=O)c2ccc(C(F)(F)F)cc12` ; IC50 = 2.94

Data point: `CCc1ccc2c(=O)n(CC(=O)N[C@H]3C[C@@](C)(O)C3)nc(CC)c2c1` ; IC50 = 0.34

Data point: `CC(C)c1nn(CC(=O)N[C@H]2C[C@@](C)(O)C2)c(=O)c2ccc(C3CC3)cc12` ; IC50 = 0.213

Data point: CC(O)c1nn(CC(=O)N[C@H]2C[C@@](C)(O)C2)c(=O)c2ccc(C(F)(F)F)cc12 (stereo partly drawn) ; IC50 = 0.818

Data point: CC(O)c1nn(CC(=O)Nc2ccn(C(C)C)n2)c(=O)c2ccc(Br)cc12 (stereo not drawn) ; IC50 = 9.79

Data point: `Cc1cc(NC(=O)Cn2nc(C(C)C)c3cc(C(F)(F)F)ccc3c2=O)nn(C)c1=O` ; IC50 = 0.44

Data point: `CC(C)c1nn(CC(=O)Nc2ccc3c(c2)[nH]c(=O)n3C)c(=O)c2ccc(Br)cc12` ; IC50 = 0.03

Data point: C[C@]1(O)C[C@@H](NC(=O)Cn2nc(C(O)C(F)(F)F)c3cc(C(F)(F)F)ccc3c2=O)C1 (stereo partly drawn) ; IC50 = 0.911

Data point: `CO[C@H]1C[C@@H](NC(=O)Cn2nc(C(C)C)c3cc(C(F)(F)F)ccc3c2=O)C1` ; IC50 = 2.09

###

- Test system: IL-1β
- Procedure Summary: PBMC assay: inhibition of IL-1β release after LPS stimulation (MSD)
- Format: cell-based
- Measurement Conditions: Homo sapiens, PBMC, 6 h, human PBMCs, 100 ng/ml LPS for 6 hrs, MSD, 96 well plates; read-out: IL1β IC50
Note to self: class labels come from recorded IC50, ranges listed here: low class = under 200 nM, middle class = from 200 nM up to 900 nM, high class = 900 nM and over

Which band does `CC(C)c1nn(CC(=O)Nc2ccc3nncn3c2)c(=O)c2ccc(C(F)(F)F)c(F)c12` fall in? low class

Which band does CCN1CCC[C@H](NC(=O)Cn2nc(C(C)C)c3cc(Br)ccc3c2=O)C1 (stereo in doubt) fall in? low class

Which band does `CC(C)c1nn(CC(=O)Nc2ccn3ncnc3c2)c(=O)c2ccc(C(F)(F)F)cc12` fall in? high class

Which band does COC(C)c1nn(CC(=O)Nc2ccncn2)c(=O)c2ccc(Br)cc12 (stereo not shown) fall in? middle class

Which band does Cc1nnc2n1C[C@@H](NC(=O)Cn1nc(C(C)C)c3cc(C(F)(F)F)ccc3c1=O)CC2 (single isomer, unassigned) fall in? middle class

Which band does COC(C)c1nn(CC(=O)Nc2ccncn2)c(=O)c2ccc(C(F)(F)F)cc12 (stereo not shown) fall in? high class

Which band does `CC(C)c1nn(CC(=O)Nc2cc(Cl)c(=O)n(C(F)F)c2)c(=O)c2ccc(C(F)(F)F)cc12` fall in? high class

Which band does `CCc1ccc2c(=O)n(CC(=O)Nc3ccc4nncn4c3)nc(C(C)C)c2c1` fall in? middle class

Which band does `CC(C)c1nn(CC(=O)Nc2ccc3nccn3n2)c(=O)c2ccc(C(C)(C)F)cc12` fall in? low class

Which band does `Cc1cc(NC(=O)Cn2nc(C(C)C)c3cc(C(F)(F)F)ccc3c2=O)cn2cnnc12` fall in? low class

Which band does CC(O)c1nn(CC(=O)Nc2ccncn2)c(=O)c2ccc(C(F)(F)F)cc12 (stereo not shown) fall in? high class

Which band does `CCc1ccc2c(=O)n(CC(=O)N[C@H]3CC[C@H](O)CC3)nc(CC)c2c1` fall in? high class

Which band does `CCc1nn(CC(=O)N[C@H]2C[C@@](C)(O)C2)c(=O)c2ccc(Br)cc12` fall in? low class

Which band does `CC(C)c1nn(CC(=O)N[C@H]2CN(CC[C@@H](C)O)CC[C@H]2O)c(=O)c2ccc(C(F)(F)F)cc12` fall in? middle class

Which band does `Cc1c(NC(=O)Cn2nc(C(C)C)c3cc(C(F)(F)F)ccc3c2=O)ccc2nccn12` fall in? middle class

Which band does `COC(C)(C)c1ccc2c(=O)n(CC(=O)Nc3ccncn3)nc(C(C)C)c2c1` fall in? high class

Hey, just so you know, these numbers are from patent US20230202989A1.
